Origin of measurements: PubChem BioAssay AID624116

# experiment-notes: qHTS Assay for Rab9 Promoter Activators: Hit Validation Using Renilla Luciferase Read-Out for Rab9
# settings: Huh7 Rab9 promoter Renilla luciferase reporter, 24 h; series mostly up to 76.9 µM
Inconclusive results are not listed. The source made the active and inactive calls. The call rests on the fitted dose curve; in most records, active means well fitted activation curve with a large enough effect; inconclusive means small, poorly fitted or top-dose-only effect; inactive means no such curve, though single readings can be large or run the other way.
Allowed answers: active, inactive

What is the recorded call for this compound in the test? Cc1ccc2nc(Nc3ccc(Cl)cc3)c3nncn3c2c1 inactive

What is the recorded call for this compound in the test? CCOC(=O)c1ccccc1NC(=O)CSc1nnc(Cc2cccn2C)n1-c1ccc(F)cc1 active

What is the recorded call for this compound in the test? COc1ccc(NC(=O)Nc2ccc(Cc3ccncc3)cc2)cc1OC inactive

What is the recorded call for this compound in the test? CCCOP(=O)(c1ccc(N(C)C)cc1)C(O)c1cccnc1 (stereo unspecified) inactive

What is the recorded call for this compound in the test? COC(=O)c1sccc1NC(=S)OC inactive

What is the recorded call for this compound in the test? O=C(CCN1C(=O)c2ccccc2C1=O)Nc1ccc(-c2nc3ccccc3s2)cc1 inactive

---

# experiment-notes: qHTS Assay for Rab9 Promoter Activators: Hit Validation Using Renilla Luciferase Read-Out for Rab9
# settings: Huh7 Rab9 promoter Renilla luciferase reporter, 24 h; series mostly up to 76.9 µM
Records with an inconclusive call do not appear. The source made the active and inactive calls. The call rests on the fitted dose curve; in most records, active means well fitted activation curve with a large enough effect; inconclusive means small, poorly fitted or top-dose-only effect; inactive means no such curve, though single readings can be large or run the other way.
measurement-name: outcome

Below: 5 compounds and their reported outcome.
Cc1ccccc1NC(=O)CSc1ccc(-c2cccnc2)nn1
inactive
N#C/C(=N\Nc1ccc(Cl)cc1)C(=N)N1CCCCC1
inactive
O=C(CCNC(=O)c1ccc(Br)o1)NCc1ccc(Cl)cc1
inactive
COCc1cc(C)nc(N/N=C/c2ccc(-c3ccc(Cl)cc3[N+](=O)[O-])o2)c1C#N
inactive
CC(C)CC(=O)N1CCN(c2ccc(NC(=O)c3ccco3)cc2)CC1
inactive

What does the record list as outcome for COC(=O)c1ccc(NC(=O)c2ccc3nc(C)sc3c2)cc1 ? inactive

What does the record list as outcome for COc1ccc(-c2csc(Nc3ncccn3)n2)cc1C ? inactive

---

# experiment-notes: qHTS Assay for Rab9 Promoter Activators: Hit Validation Using Renilla Luciferase Read-Out for Rab9; further: potency means the concentration at half of the fitted maximal effect
# settings: Huh7 Rab9 promoter Renilla luciferase reporter, 24 h; series mostly up to 76.9 µM
Records with an inconclusive call do not appear. The source made the active and inactive calls. Calls follow the shape of the dose curve; as a rule, active = well fitted activation curve with a large enough effect; inconclusive = small, poorly fitted or top-dose-only effect; inactive = no such curve, though single readings can be large or run the other way.
measurement-name: Potency

NC(=O)C(=O)NN=C1C2CC3CC(C2)CC1C3
inactive
CCOC(=O)CSc1nc2cc3c(cc2cc1C#N)OCO3
inactive
Nc1ccc(C(=O)Nc2ccccc2N)cc1
16.4 µM (active)
O=C(C[N+]1(CC#Cc2ccccc2)CCCCC1)c1ccccc1
inactive
CC(=O)Nc1nnc(SCC(=O)NCCOc2ccccc2)s1
inactive

Here's the next entry for you.
What does the record list as Potency for COc1ccccc1C(=O)Nc1nnc(SCC(=O)NC2CCCC2)s1 ? inactive
